meta.source: patent US20110077248A1

- targetOrTestSystem: SIRT1 (Homo sapiens)
- Construct: His-tag (N); made in house; host or cells: E. coli BL21(DE3), T7-promoter vector
- Sequence (Q96EB6 whole entry): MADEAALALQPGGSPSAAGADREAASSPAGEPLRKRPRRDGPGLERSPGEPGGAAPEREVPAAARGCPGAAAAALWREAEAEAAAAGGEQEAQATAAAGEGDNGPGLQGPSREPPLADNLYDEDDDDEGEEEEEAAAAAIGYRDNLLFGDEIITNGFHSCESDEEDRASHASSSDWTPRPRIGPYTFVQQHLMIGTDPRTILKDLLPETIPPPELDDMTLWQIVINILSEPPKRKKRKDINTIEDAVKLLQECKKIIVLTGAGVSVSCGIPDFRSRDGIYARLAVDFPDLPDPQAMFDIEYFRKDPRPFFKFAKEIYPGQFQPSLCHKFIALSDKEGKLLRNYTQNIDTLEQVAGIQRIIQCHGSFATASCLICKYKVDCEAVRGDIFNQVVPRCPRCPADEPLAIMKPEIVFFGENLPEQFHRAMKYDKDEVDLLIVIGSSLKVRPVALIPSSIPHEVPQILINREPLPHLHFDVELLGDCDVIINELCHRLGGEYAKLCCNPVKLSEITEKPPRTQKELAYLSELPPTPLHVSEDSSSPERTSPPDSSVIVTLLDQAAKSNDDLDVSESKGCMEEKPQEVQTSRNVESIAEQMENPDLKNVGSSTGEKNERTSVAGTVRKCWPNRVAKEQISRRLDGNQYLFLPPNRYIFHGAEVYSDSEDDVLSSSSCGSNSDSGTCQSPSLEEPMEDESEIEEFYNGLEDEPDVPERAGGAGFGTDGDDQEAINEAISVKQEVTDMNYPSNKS
- testProtocol: Mass spectrometry based assay for modulators of SIRT1 activity (deacetylation of p53-based acetylated peptide)
- Type: biochemical
- setupConditions: concentration of test compound that results in 150% activation of SIRT1; 0.5 μM peptide substrate, 120 μM βNAD+, 10 nM SIRT1, 25 min, 25° C.
- Source text: A mass spectrometry based assay was used to identify modulators of SIRT1 activity. The mass spectrometry based assay utilizes a peptide having 20 amino acid residues as follows: Ac-EE-K(biotin)-GQSTSSHSK(Ac)NleSTEG-K(5TMRi)-EE-NH2 (SEQ ID NO: 1) wherein K(Ac) is an acetylated lysine residue and Nle is a norleucine. The peptide is labeled with the fluorophore 5TMR (excitation 540 nm/emission 580 nm) at the C-terminus. The sequence of the peptide substrate is based on p53 with several modifications. […]
measurementType: EC1.5

Recorded results for 4 compounds are shown here.
compound="Cc1ncccc1-c1nc2c(C(=O)Nc3nc(CN4CCOCC4)cs3)cccn2n1 [Compound 241]" targetortestsystem="SIRT1 (Homo sapiens)" measurementtype=EC1.5 result="B (EC1.5 1-25 uM)"
compound="O=C(Nc1cccc(CN2CCOCC2)n1)c1cccn2cc(-c3cccc(F)c3F)nc12 [Compound 232]" targetortestsystem="SIRT1 (Homo sapiens)" measurementtype=EC1.5 result="B (EC1.5 1-25 uM)"
compound="O=C(Nc1cccnn1)c1nccn2cc(-c3ccccc3OC(F)(F)F)nc12 [Compound 243]" targetortestsystem="SIRT1 (Homo sapiens)" measurementtype=EC1.5 result="B (EC1.5 1-25 uM)"
compound="O=C(Nc1ccccn1)c1nccn2cc(-c3ccc(F)cc3C(F)(F)F)nc12 [Compound 189]" targetortestsystem="SIRT1 (Homo sapiens)" measurementtype=EC1.5 result="B (EC1.5 1-25 uM)"

Consider the compound shown here: O=C(Nc1ccccn1)c1cccn2cc(-c3ccccc3F)nc12 [Compound 153] What is its recorded EC1.5?
C (EC1.5>25 uM)

Note, next up: O=C(Nc1cccn2cc(-c3cccc(-c4ccccc4)c3)nc12)c1ccncc1 [Compound 124]
C (EC1.5>25 uM)

Next: O=C(Nc1nccs1)c1cccn2nc(-c3cc(Cl)ccc3C(F)(F)F)nc12 [Compound 223]
B (EC1.5 1-25 uM)

Now try O=C(Nc1ccccc1)c1cccn2cc(-c3ccccc3)nc12 [Compound 108] .
C (EC1.5>25 uM)

For O=C(Nc1nc(CN2CCOCC2)cs1)c1nccn2cc(-c3ccc(F)cc3C(F)(F)F)nc12 [Compound 260] then?
A (EC1.5<1.0 uM)

What about O=C(Nc1nccs1)c1cccn2cc(-c3cccc(CN4CCCC4)c3)nc12 [Compound 256] ?
B (EC1.5 1-25 uM)

And for O=C(Nc1nccs1)c1cccn2cc(-c3ccc(CN4CCOCC4)cc3)nc12 [Compound 262] ?
B (EC1.5 1-25 uM)

What would you report for O=C(Nc1cccn2cc(-c3ccccc3)nc12)c1cnccn1 [Compound 102] ?
C (EC1.5>25 uM)

Moving on to the next compound: Cc1cc(-c2nc3c(C(=O)Nc4cccc(CN5CCOCC5)n4)cccn3n2)ccn1 [Compound 217]
B (EC1.5 1-25 uM)

Same read-out for O=C(NC1CCCC1)c1cccn2cc(-c3cccc(OC(F)(F)F)c3)nc12 [Compound 114] ?
C (EC1.5>25 uM)

Can you check O=C(Nc1ccccn1)c1nccn2cc(-c3ccccc3OC(F)(F)F)nc12 [Compound 186] next?
B (EC1.5 1-25 uM)

# repeat for O=C(Nc1nc(CN2CCOCC2)cs1)c1cccn2cc(-c3cccc(C(F)(F)F)c3)nc12 [Compound 132]
A (EC1.5<1.0 uM)

// query: O=C(Nc1ccccn1)c1cccn2nc(-c3cc(Cl)ccc3C(F)(F)F)nc12 [Compound 224]
B (EC1.5 1-25 uM)

Let us now turn to O=C(Nc1ccccn1)c1cccn2nc(-c3cccc(N4CCOCC4)c3)nc12 [Compound 182]
B (EC1.5 1-25 uM)
